Tested on: Bacillus subtilis DB104 (SP-AmyQ fusion secretion)
experiment: AmyQ secretion efficiency, weighted average sort bin (1 = best secretion, 10 = worst) (bin number (weighted average, 1-10)); higher = lower secretion efficiency
Each record's AmyQ secretion efficiency is compared with small value = under 4, mid value = from 4 up to 6, large value = 6 and over to give its class.

>  <biopolymer_sequence>
MKKRYMAFIICLSLILSVLAAPPSGAKAESV

>  <assayed_system>
Bacillus subtilis DB104 (SP-AmyQ fusion secretion)

>  <qualitative_label>
small value

$$$$
>  <biopolymer_sequence>
MNLRKILLSSALSLGMLVSAAPVLETSS

>  <assayed_system>
Bacillus subtilis DB104 (SP-AmyQ fusion secretion)

>  <qualitative_label>
large value

$$$$
>  <biopolymer_sequence>
MNKLKRLSMLTVMIASVFIFSSHALAARR

>  <assayed_system>
Bacillus subtilis DB104 (SP-AmyQ fusion secretion)

>  <qualitative_label>
small value

$$$$
>  <biopolymer_sequence>
MFKKHTISLLIIFLLASAVLAKPIECHTV

>  <assayed_system>
Bacillus subtilis DB104 (SP-AmyQ fusion secretion)

>  <qualitative_label>
mid value

$$$$
>  <biopolymer_sequence>
MRKKKLWISLLFALTLIFTMAFSNMSAQAAGK

>  <assayed_system>
Bacillus subtilis DB104 (SP-AmyQ fusion secretion)

>  <qualitative_label>
small value

$$$$
>  <biopolymer_sequence>
MRKTKKRKLTGLMMFGTITAASASPD

>  <assayed_system>
Bacillus subtilis DB104 (SP-AmyQ fusion secretion)

>  <qualitative_label>
mid value

$$$$
>  <biopolymer_sequence>
MRKKKWRVGLLAGCLAAGGFSYNAFATEN

>  <assayed_system>
Bacillus subtilis DB104 (SP-AmyQ fusion secretion)

>  <qualitative_label>
mid value

$$$$
>  <biopolymer_sequence>
MKKRLIAPMLLSAASLAFFAMSGSMQAAAY

>  <assayed_system>
Bacillus subtilis DB104 (SP-AmyQ fusion secretion)

>  <qualitative_label>
mid value

$$$$

Prompt: GET /class?item= "MIKGIIRFLLVSFVLFFALSTGITGVQAAPA"
Completion: small value

Prompt: Now this one: "MKVLLSALLLLLFAFFTSFTLTLFEPSASGKKL"
Completion: large value

Prompt: Another sequence to look at: "MKKWLIIAVSLAIAIVLFMYTAGEAKAAGM"
Completion: small value

Prompt: Lookup "MKKGIIRFLLVSFVLFFALDEDITGVQAAPA"
Completion: small value

Prompt: Please do the same for "MKSKGSIMACLILFSFTITTFINTETLSAFSN" as well.
Completion: large value

Prompt: And the next one, "MKKKLAAGLTASAIVGTTLVVTPWEAATI" ?
Completion: large value

Prompt: Do the same for "MKKVLMAFIICLSLILSVLAAPPSGMKAESV" please
Completion: small value

Prompt: // same read-out, input: "MKVPKTMLLSTAAGLLLSLTATSWSAHYV"
Completion: large value

Prompt: Let us now turn to "MKLAKRVSALTPSTTLAITAKCKEL"
Completion: large value

Prompt: Request: "MKRKRSIMACLILFSFTITTFINTETISAFSN"
Completion: small value

Prompt: Now this one: "MFNRLFRVCFLAALIMAFTLPNSWYAQKP"
Completion: large value

Prompt: Check "MSTLVLCVSILAVILSGVALTQLS" too.
Completion: large value

Prompt: // same read-out, input: "MRGKSAVLLSLIMLIAGFLISFEFQM"
Completion: mid value

Prompt: Input "MKRTWNVCLTALLSVLLVAGSVKRKKHAEAKKP"
Completion: large value

* * *

Test system: Bacillus subtilis DB104 (SP-AmyQ fusion secretion)
experiment: AmyQ secretion efficiency, weighted average sort bin (1 = best secretion, 10 = worst) (bin number (weighted average, 1-10)); higher = lower secretion efficiency
AmyQ secretion efficiency values for the sequences below.

>  <biopolymer_sequence>
MAIIIAIIAAVIVIAALITFNVRNCSPG

>  <result>
5.87

$$$$
>  <biopolymer_sequence>
MKLKSKYYKGCRSTSTVFVATTIANAPTH

>  <result>
7.35

$$$$

Prompt: I would be grateful if you could share the reported AmyQ secretion efficiency for "MNSYINVLTMCFLGLILFVPTALADNS" .
Completion: 1.26

Prompt: What do you have for "MRSYIKVLTMCFLGLILFVPTHLADNS" ?
Completion: 6.38

Prompt: Next: "MLKKKWMVGLLAGCLAAGEEPYNAFATEN"
Completion: 4.04

Prompt: Please give the result for "MMKKLAAGLTASAIVGTTLVVTPAEAATI" too.
Completion: 2.13

Prompt: Next sequence: "MKSCKQLIVCSLAAILLLIPSVWFAADS"
Completion: 4.55

Prompt: Then "MRSYIKVLTMCFLGLILFVFSSLPTALADNS" ?
Completion: 2.22

Prompt: Query "MKKRLIAPMLLSAASLAFFAEEEEDEAQAAAY" next
Completion: 3.9

Prompt: And what about the sequence "MKKLLAAGIIGLLTVEEESPSFAAEK" ?
Completion: 6.63

Prompt: Similarly, "MKLWMRKTLVVLFTIVTFGLVIATFTTVAVSPPAALMADKP" ?
Completion: 4.44

Prompt: Moving on to "MLKKIALTLCPAIVGSLLFFTAPASKHVS"
Completion: 5.12

* * *

Test system: Bacillus subtilis DB104 (SP-AmyQ fusion secretion)
experiment: AmyQ secretion efficiency, weighted average sort bin (1 = best secretion, 10 = worst) (bin number (weighted average, 1-10)); higher = lower secretion efficiency
Listed here: items and their measured AmyQ secretion efficiency.

Some sequences with recorded AmyQ secretion efficiency:
>  <biopolymer_sequence>
MGSSLAAGLTASAIVGTTLVVTPAEAATI

>  <assayed_system>
Bacillus subtilis DB104 (SP-AmyQ fusion secretion)

>  <AmyQ secretion efficiency>
4.99

$$$$
>  <biopolymer_sequence>
MLKKKWMVGLLAGCLAAGGFSYNAFETEN

>  <assayed_system>
Bacillus subtilis DB104 (SP-AmyQ fusion secretion)

>  <AmyQ secretion efficiency>
6.72

$$$$
>  <biopolymer_sequence>
MKKAFLVFLSVVLVTTVFLVKQQESVCQAKQL

>  <assayed_system>
Bacillus subtilis DB104 (SP-AmyQ fusion secretion)

>  <AmyQ secretion efficiency>
4.58

$$$$

Prompt: What does the data say about its AmyQ secretion efficiency? Entry: "MKKIVSILFMFGLVMGFSQFQPSTVFAAED"
Completion: 2.13

Prompt: Next record, please: "MKSKWMSGLLLVAVGFSFTQVMVHGGET"
Completion: 7.46

Prompt: And the next one, "MKKLLAAGIIGLLTVSIASPVFAAEK" ?
Completion: 2.43

Prompt: Then what about the sequence "MKRLLSSLAISALSLGLLVSAPTASFAAES" ?
Completion: 2.75

Prompt: Could you do the same for "MRNRRKTSLLLAGLCTAAQMVFVTHASAEES" , please?
Completion: 3.33

Prompt: // repeat for "MKKWMITIAMTMLILAGIALFVFISPLKSHKT" and report
Completion: 1.1

Prompt: Follow-up entry: "MKRSISIFITCLLITLLTMGGMIASPASIAGT"
Completion: 4.57

Prompt: # repeat for "MFNRLFRGCGGKQKIMAFTLPNSVYAQKP"
Completion: 7.39

Prompt: // next record "MKKSQYFIVFICFFVLFSRHKKAAAAADS"
Completion: 6.2

Prompt: Same thing, different sequence: "MKQGKFSSFLILLLMLTLVVAPKEKAEAASS"
Completion: 2.33

Prompt: Okay, and "MKKRFSLIMMTGLLFGLTSPDEKAFAAEK" ?
Completion: 2.56

Prompt: Now the sequence "MRGKSAVLLSLIMLIAGFLISFQFQM"
Completion: 7.36

Prompt: What do you get for "MKSCKQLIVCSLAAILLLIPSVSFSTSTGASSFAADS" ?
Completion: 6.07

Prompt: Proceed to "MKLRKVLTGSVLSLGLLKRRRKKAFATSP"
Completion: 5.35

Prompt: Field entry: "MKKVMLATALFLGLTRRKANAADL"
Completion: 7.36

Prompt: Follow-up item: "MKSKGSIMACLILFSFTITTFINTETISQFSN"
Completion: 7.33

Prompt: Try "MRSYIKVLTMCFLGLILFVPTTAPSPGFALADNS" next.
Completion: 4.85

Prompt: Try "MMRTWNVCLTALLSVLLVAGSVPFHAEAKKP" next.
Completion: 3.23

Prompt: Now consider "MKKRKVLTGSVLSLGLLVSASPAFATSP" .
Completion: 1.37

Prompt: Item: "MKRIRIPMTLALGAALTIAPLVFASAEEN"
Completion: 4.55

* * *

Below, each entry is listed with its recorded AmyQ secretion efficiency.
Test system: Bacillus subtilis DB104 (SP-AmyQ fusion secretion)
experiment: AmyQ secretion efficiency, weighted average sort bin (1 = best secretion, 10 = worst) (bin number (weighted average, 1-10)); higher = lower secretion efficiency
// response body must contain only the number

>  <biopolymer_sequence>
MKLAKRVSALTPSTTLAITVKAKEL

>  <AmyQ secretion efficiency>
6.82

$$$$
>  <biopolymer_sequence>
MKQGKFSKRLILLLMLTLVVAPKEKAEAASS

>  <AmyQ secretion efficiency>
1.59

$$$$
>  <biopolymer_sequence>
MTMLRKIIGWILLLCIIPLFAFTVIPSGKEV

>  <AmyQ secretion efficiency>
8.07

$$$$

Now look at this entry.
Prompt: So what does the record say about AmyQ secretion efficiency for "MKKAFLVFLSVVLVTTVFLVKQQESVAQPKQL" ?
Completion: 4.94

The origin of these recorded values is the supplement of paper PMC9942255.
